Test system: Saccharomyces cerevisiae
assay method text: protein stability index of tFT-peptide fusion (C-terminal peptide) (PSI (0-1 scale)); higher = more stable (slower turnover)
condition notes: genetic background: wild type; temperature: 30 C
Tick 1 (yes) if protein stability index is 0.7 or greater. Tick 0 (no) if protein stability index is less than 0.7.

Please indicate if the recorded protein stability index for CLPLPAPLLAHL meets or exceeds 0.7. 0 (no)

Please indicate if the recorded protein stability index for RNTIKMKENKRI meets or exceeds 0.7. 0 (no)

Please indicate if the recorded protein stability index for IMGLGLASAKRM meets or exceeds 0.7. 0 (no)

====

Tested on: Saccharomyces cerevisiae
assay method text: protein stability index of tFT-peptide fusion (C-terminal peptide) (PSI (0-1 scale)); higher = more stable (slower turnover)
condition notes: genetic background: das1 deletion; temperature: 30 C
measured metric: protein stability index
Answer field: number only, no words.

>>> test_result("TSDGSASDLEII [MCM10 C-terminal 12 aa]")
0.686
>>> test_result("AKRDILPSPVSV [LPP1 C-terminal 12 aa]")
0.617
>>> test_result("GPSDDDEEDDKK [YGL242C C-terminal 12 aa]")
0.643
>>> test_result("ENRTMFLSKGKS [YPR172W C-terminal 12 aa]")
0.701
>>> test_result("VTVSNVWFNQLQ [YPL197C C-terminal 12 aa]")
0.706

Tell us which protein stability index value is on record for DDAKDSNNSSLR [WSC2 C-terminal 12 aa] 0.682
